// data source = patent US10626144B2

system: Escherichia coli ATCC 25922; test: MIC, broth microdilution (CLSI), reference strain; details: CAMHB
Square brackets hold non-standard residues; d marks the D form. Peptide text beside a SMILES is read from it. * marks the point of attachment. Pro(trans-4-F) = O=C(O)[C@@H]1C[C@@H](F)CN1; Phe(3-CN) = N#Cc1cccc(C[C@H](N)C(=O)O)c1; Phe(4-CN) = N#Cc1ccc(C[C@H](N)C(=O)O)cc1; Dab(3S-OH) = NC[C@H](O)[C@H](N)C(=O)O; 3Pal = N[C@@H](Cc1cccnc1)C(=O)O; ΔZArg = N=C(N)NCC/C=C(\N)C(=O)O; Lys(Me) = CNCCCC[C@H](N)C(=O)O; dOrn = NCCC[C@@H](N)C(=O)O; Orn = NCCC[C@H](N)C(=O)O; Dab = NCC[C@H](N)C(=O)O; NH(CH2)5NH2 = NCCCCCN*; NH(CH2)4NH2 = NCCCCN*
Endpoint name: Ec: MIC Escherichia coli ATCC 25922

The examples below pair each entry with its known result.
N=C(N)NCC/C=C(\NC(=O)[C@H](CCCCN)NC(=O)[C@H](Cc1cnc[nH]1)NC(=O)[C@@H]1C[C@@H](F)CN1C(=O)[C@@H](CCCN)NC(=O)CNC(=O)[C@@H](NC(=O)[C@@H](NC(=O)[C@@H](N)CCCCN)[C@@H](O)CN)[C@@H](O)CN)C(=O)N[C@@H](CCCCN)C(=O)NCCCCN [22.13] (H-K[Dab(3S-OH)][Dab(3S-OH)]G[dOrn][Pro(trans-4-F)]HK[ΔZArg]K-{NH(CH2)4NH2}); + (≤32 μg/mL)
N=C(N)NCC/C=C(\NC(=O)[C@@H](CCCCN)NC(=O)[C@H](Cc1cnc[nH]1)NC(=O)[C@@H]1CCCN1C(=O)[C@@H](CCCN)NC(=O)CNC(=O)[C@@H](NC(=O)[C@@H](NC(=O)[C@@H](N)CCCCN)[C@@H](O)CN)[C@@H](O)CN)C(=O)N[C@@H](CCCCN)C(=O)NCCCCN [22.11] (H-K[Dab(3S-OH)][Dab(3S-OH)]G[dOrn]PH[dK][ΔZArg]K-{NH(CH2)4NH2}); ++ (≤8 μg/mL)
N=C(N)NCCC[C@H](NC(=O)[C@H](CCCCN)NC(=O)[C@H](Cc1cnc[nH]1)NC(=O)[C@@H]1CCCN1C(=O)[C@@H](CCCN)NC(=O)CNC(=O)[C@@H](NC(=O)[C@@H](NC(=O)[C@@H](N)CCCCN)[C@@H](O)CN)[C@@H](O)CN)C(=O)N[C@@H](CCCCN)C(=O)NCCCCN [22.17] (H-K[Dab(3S-OH)][Dab(3S-OH)]G[dOrn]PHKRK-{NH(CH2)4NH2}); + (≤32 μg/mL)
C[C@H](NC(=O)[C@@H](NC(=O)[C@@H](N)CCCCN)[C@@H](O)CN)C(=O)NCC(=O)N[C@H](CCCN)C(=O)N1CCC[C@H]1C(=O)N[C@@H](Cc1cccnc1)C(=O)N[C@@H](CCCCN)C(=O)N/C(=C\CCNC(=N)N)C(=O)N[C@@H](CCCCN)C(=O)NCCCCN [24.18] (H-K[Dab(3S-OH)]AG[dOrn]P[3Pal]K[ΔZArg]K-{NH(CH2)4NH2}); ++ (≤8 μg/mL)
C[C@H](NC(=O)[C@@H](NC(=O)[C@@H](N)CCCCN)[C@@H](O)CN)C(=O)NCC(=O)N[C@H](CCCN)C(=O)N1CCC[C@H]1C(=O)N[C@@H](Cc1cccc(C#N)c1)C(=O)N[C@@H](CCCCN)C(=O)N/C(=C\CCNC(=N)N)C(=O)O [24.89] (H-K[Dab(3S-OH)]AG[dOrn]P[Phe(3-CN)]K[ΔZArg]-OH); + (≤32 μg/mL)
C[C@H](NC(=O)[C@H](CCN)NC(=O)[C@@H](N)CCCCN)C(=O)NCC(=O)N[C@H](CCCN)C(=O)N1CCC[C@H]1C(=O)N[C@@H](Cc1cnc[nH]1)C(=O)N[C@@H](CCCCN)C(=O)N/C(=C\CCNC(=N)N)C(=O)N[C@@H](CCCCN)C(=O)NCCCCCN [14.5] (H-K[Dab]AG[dOrn]PHK[ΔZArg]K-{NH(CH2)5NH2}); + (≤32 μg/mL)
N#Cc1ccc(C[C@H](NC(=O)[C@@H]2CCCN2C(=O)[C@@H](CCCN)NC(=O)CNC(=O)[C@@H](NC(=O)[C@@H](NC(=O)[C@@H](N)CCCCN)[C@@H](O)CN)[C@@H](O)CN)C(=O)N[C@@H](CCCCN)C(=O)N/C(=C\CCNC(=N)N)C(=O)O)cc1 [22.38] (H-K[Dab(3S-OH)][Dab(3S-OH)]G[dOrn]P[Phe(4-CN)]K[ΔZArg]-OH); ++ (≤8 μg/mL)
N=C(N)NCC/C=C(\NC(=O)[C@H](CCCCN)NC(=O)[C@H](Cc1cnc[nH]1)NC(=O)[C@@H]1CCCN1C(=O)[C@@H](CCCN)NC(=O)CNC(=O)[C@H](CCCN)NC(=O)[C@@H](NC(=O)[C@@H](N)CCCCN)[C@@H](O)CN)C(=O)O [211.2] (H-K[Dab(3S-OH)][Orn]G[dOrn]PHK[ΔZArg]-OH); + (≤32 μg/mL)

Per the records, this molecule ( CC[C@H](C)[C@H](NC(=O)[C@@H](NC(=O)[C@@H](N)CCCCN)[C@@H](O)CN)C(=O)NCC(=O)N[C@H](CCCN)C(=O)N1CCC[C@H]1C(=O)N[C@@H](Cc1cnc[nH]1)C(=O)N[C@@H](CCCCN)C(=O)N/C(=C\CCNC(=N)N)C(=O)O [27.2] (H-K[Dab(3S-OH)]IG[dOrn]PHK[ΔZArg]-OH) ) has Ec: MIC Escherichia coli ATCC 25922 equal to − (>32 μg/mL)

Per the records, this molecule ( CNCCCC[C@H](NC(=O)[C@H](Cc1cnc[nH]1)NC(=O)[C@@H]1CCCN1C(=O)[C@@H](CCCN)NC(=O)CNC(=O)[C@H](C)NC(=O)[C@@H](NC(=O)[C@@H](N)CCCCN)[C@@H](O)CN)C(=O)N[C@H](CCCNC(=N)N)C(N)=O [24.155] (H-K[Dab(3S-OH)]AG[dOrn]PH[Lys(Me)][dR]-NH2) ) has Ec: MIC Escherichia coli ATCC 25922 equal to − (>32 μg/mL)

Per the records, this molecule ( C[C@H](NC(=O)[C@@H](NC(=O)[C@@H](N)CCCCN)[C@@H](O)CN)C(=O)NCC(=O)N[C@H](CCCN)C(=O)N1CCC[C@H]1C(=O)N[C@@H](Cc1ccc(C#N)cc1)C(=O)N[C@@H](CCCCN)C(=O)N/C(=C\CCNC(=N)N)C(=O)O [24.100] (H-K[Dab(3S-OH)]AG[dOrn]P[Phe(4-CN)]K[ΔZArg]-OH) ) has Ec: MIC Escherichia coli ATCC 25922 equal to ++ (≤8 μg/mL)

Per the records, this molecule ( N=C(N)NCC/C=C(\NC(=O)[C@H](CCCCN)NC(=O)[C@H](Cc1cnc[nH]1)NC(=O)[C@@H]1CCCN1C(=O)[C@@H](CCCN)NC(=O)CNC(=O)CNC(=O)[C@H](CCN)NC(=O)[C@@H](N)CCCCN)C(=O)N[C@@H](CCCCN)C(=O)NCCCCN [13.1] (H-K[Dab]GG[dOrn]PHK[ΔZArg]K-{NH(CH2)4NH2}) ) has Ec: MIC Escherichia coli ATCC 25922 equal to − (>32 μg/mL)
